method-notes: Half life period was determined
Type: ADME
test-parameters: rat
half-life values, listed per item
Give just the number in h; leave the unit off.

O=C(O)CC[C@H](NC(=O)c1cc(F)c(N(CCI)CCI)c(F)c1F)C(=O)O :: 6
O=C(O)CC[C@H](NC(=O)c1cc(F)c(N(CCBr)CCBr)c(F)c1F)C(=O)O :: 0.15
O=C(O)CC[C@H](NC(=O)c1cc(F)c(N(CCCl)CCCl)c(F)c1F)C(=O)O :: 6

Now for the compound whose half-life we want.
The value of half-life measured for the compound `O=C(O)CC[C@H](NC(=O)c1cc(F)c(N(CCCl)CCCl)c(F)c1)C(=O)O` turned out to be 1.5
